procedure.details: in vivo
experimental.conditions: rat, plasma, iv
assay.endpoint: half-life (min)

Previously resolved entries follow.
[
  {
    "molecule": "CC(C)c1nc(CCC(=O)NC(C(=O)N[C@@H](Cc2ccccc2)[C@@H](O)C[C@H](Cc2ccccc2)NC(=O)OCc2cccnc2)C(C)C)cs1 (stereo partly specified)",
    "half-life (min)": 54.6
  },
  {
    "molecule": "COc1ccc(COC(=O)NC(C(=O)N[C@@H](Cc2ccccc2)C[C@H](O)[C@H](Cc2ccccc2)NC(=O)OCc2cccnc2)C(C)C)cn1 (stereo partly specified)",
    "half-life (min)": 19.8
  },
  {
    "molecule": "COc1cncc(COC(=O)NC(C(=O)N[C@@H](Cc2ccccc2)[C@@H](O)C[C@H](Cc2ccccc2)NC(=O)OCc2cccnc2)C(C)C)c1 (stereo partly specified)",
    "half-life (min)": 71.4
  }
]

(a) Cc1cncc(COC(=O)NC(C(=O)N[C@@H](Cc2ccccc2)C[C@H](O)[C@H](Cc2ccccc2)NC(=O)OCc2cccnc2)C(C)C)n1 (stereo partly specified)
(b) Cc1ncc(CN(C)C(=O)NC(C(=O)N[C@@H](Cc2ccccc2)C[C@H](O)[C@H](Cc2ccccc2)NC(=O)OCc2cccnc2)C(C)C)nc1C (stereo partly specified)
(c) Cc1cccc(COC(=O)NC(C(=O)N[C@@H](Cc2ccccc2)[C@@H](O)C[C@H](Cc2ccccc2)NC(=O)OCc2cccnc2)C(C)C)n1 (stereo partly specified)
List by increasing half-life. Your reply should list the labels following the order given in the request. b, c, a

* * *

procedure.details: in vivo
experimental.conditions: rat, plasma, iv
assay.endpoint: half-life (min)

Previously resolved entries follow.
[
  {
    "molecule": "CC(C)c1nc(CN(C)C(=O)NC(C(=O)N[C@@H](Cc2ccccc2)C[C@H](O)[C@H](Cc2ccccc2)NC(=O)OCc2ccno2)C(C)C)co1 (stereo partly specified)",
    "half-life / min": 24
  },
  {
    "molecule": "CCc1nc(CN(C)C(=O)NC(C(=O)N[C@@H](Cc2ccccc2)C[C@H](O)[C@H](Cc2ccccc2)NC(=O)OCc2cncs2)C(C)C)co1 (stereo partly specified)",
    "half-life / min": 120
  },
  {
    "molecule": "COc1ccc(COC(=O)NC(C(=O)N[C@@H](Cc2ccccc2)[C@@H](O)C[C@H](Cc2ccccc2)NC(=O)OCc2cccnc2)C(C)C)nc1 (stereo partly specified)",
    "half-life / min": 27.6
  },
  {
    "molecule": "CC(NC(=O)OCc1csc(C(C)C)n1)C(=O)N[C@@H](Cc1ccccc1)C[C@H](O)[C@H](Cc1ccccc1)NC(=O)OCc1cncs1 (stereo partly specified)",
    "half-life / min": 31.8
  }
]

(1) COc1ccc(COC(=O)NC(C(=O)N[C@@H](Cc2ccccc2)[C@@H](O)C[C@H](Cc2ccccc2)NC(=O)OCc2cccnc2)C(C)C)cn1 (stereo partly specified)
(2) COc1ccc(CN(C)C(=O)NC(C(=O)N[C@@H](Cc2ccccc2)C[C@H](O)[C@H](Cc2ccccc2)NC(=O)OCc2cccnc2)C(C)C)cn1 (stereo partly specified)
For the pair 1 and 2 , which member has the lower half-life number? Refer to your chosen entry by its label in the reply. 2

* * *

procedure.details: Oral bioavailability in rat
Assay type: ADME, organism-based
experimental.conditions: in vivo
assay.endpoint: bioavailability (%)

Previously resolved entries follow.
[
  {
    "compound": "Cc1cccc(CN(C)C(=O)NC(C(=O)N[C@@H](Cc2ccccc2)[C@@H](O)C[C@H](Cc2ccccc2)NC(=O)OCc2cccnc2)C(C)C)n1 (stereo partly drawn)",
    "observed": 16
  },
  {
    "compound": "CC(C)C(NC(=O)N(C)Cc1csc(C(C)(C)C)n1)C(=O)N[C@@H](Cc1ccccc1)[C@@H](O)C[C@H](Cc1ccccc1)NC(=O)OCc1cccnc1 (stereo partly drawn)",
    "observed": 9.3
  },
  {
    "compound": "CC(C)c1ncc(COC(=O)NC(C(=O)N[C@@H](Cc2ccccc2)C[C@H](O)[C@H](Cc2ccccc2)NC(=O)OCc2cccnc2)C(C)C)s1 (stereo partly drawn)",
    "observed": 0.7
  },
  {
    "compound": "COc1ccc(CN(C)C(=O)NC(C(=O)N[C@@H](Cc2ccccc2)[C@@H](O)C[C@H](Cc2ccccc2)NC(=O)OCc2cccnc2)C(C)C)nc1 (stereo partly drawn)",
    "observed": 17
  },
  {
    "compound": "CC(C)C(NC(=O)N(C)Cc1csc(C2CCC2)n1)C(=O)N[C@@H](Cc1ccccc1)C[C@H](O)[C@H](Cc1ccccc1)NC(=O)OCc1cncs1 (stereo partly drawn)",
    "observed": 60
  }
]

(A) CC(C)c1nc(CN(C)C(=O)NC(C(=O)N[C@@H](Cc2ccccc2)[C@@H](O)C[C@H](Cc2ccccc2)NC(=O)OCc2cncs2)C(C)C)cs1 (stereo partly drawn)
(B) COc1ccc(COC(=O)NC(C(=O)N[C@@H](Cc2ccccc2)[C@@H](O)C[C@H](Cc2ccccc2)NC(=O)OCc2cccnc2)C(C)C)cn1 (stereo partly drawn)
(C) Cc1cncc(COC(=O)NC(C(=O)N[C@@H](Cc2ccccc2)C[C@H](O)[C@H](Cc2ccccc2)NC(=O)OCc2cccnc2)C(C)C)c1 (stereo partly drawn)
(D) Cc1ccc(COC(=O)NC(C(=O)N[C@@H](Cc2ccccc2)[C@@H](O)C[C@H](Cc2ccccc2)NC(=O)OCc2cccnc2)C(C)C)cn1 (stereo partly drawn)
List by increasing bioavailability. Your reply should list the labels following the order given in the request. C, B, D, A

(A) Cc1ncc(COC(=O)N[C@@H](Cc2ccccc2)[C@@H](O)C[C@H](Cc2ccccc2)NC(=O)C(NC(=O)N(C)Cc2csc(C(C)C)n2)C(C)C)s1 (stereo partly drawn)
(B) CCc1cccc(COC(=O)NC(C(=O)N[C@@H](Cc2ccccc2)[C@@H](O)C[C@H](Cc2ccccc2)NC(=O)OCc2cccnc2)C(C)C)n1 (stereo partly drawn)
(C) COc1cncc(CN(C)C(=O)NC(C(=O)N[C@@H](Cc2ccccc2)[C@@H](O)C[C@H](Cc2ccccc2)NC(=O)OCc2cccnc2)C(C)C)c1 (stereo partly drawn)
(D) CC(C)C(NC(=O)OCc1cnccn1)C(=O)N[C@@H](Cc1ccccc1)C[C@H](O)[C@H](Cc1ccccc1)NC(=O)OCc1cccnc1 (stereo partly drawn)
Output the entries ranked by bioavailability from maximum down to minimum. Your reply should list the labels following the order given in the request. A, B, D, C

Sourced from ChEMBL document CHEMBL1131475
